target desc: Follistatin (Homo sapiens) (UniProt P19883)
Sequence (P19883 whole entry, looked up): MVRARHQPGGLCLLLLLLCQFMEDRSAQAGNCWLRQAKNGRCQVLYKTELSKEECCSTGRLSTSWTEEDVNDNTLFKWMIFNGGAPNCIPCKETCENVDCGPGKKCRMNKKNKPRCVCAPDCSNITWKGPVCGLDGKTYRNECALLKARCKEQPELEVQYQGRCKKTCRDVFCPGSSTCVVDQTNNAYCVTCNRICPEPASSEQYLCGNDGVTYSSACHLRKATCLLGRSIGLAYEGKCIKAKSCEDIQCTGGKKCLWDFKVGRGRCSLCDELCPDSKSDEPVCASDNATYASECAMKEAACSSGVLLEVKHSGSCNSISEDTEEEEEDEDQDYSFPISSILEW
procedure details: FST protein binding to printed compounds – biochemical, small-molecule microarray, 635/667 nm fluorescence, primary screen (AID 1132)
condition set: 635 nm fluorescence, higher = more signal
Criterion: composite z-score meeting or surpassing 0.7. Met: yes. Not met: no.

# compound, qualitative label
rows = [
    ("COc1ccc([Si](C)(C)[C@@H]2[C@@H](CC(=O)N3CCC[C@H]3CO)O[C@]3(C(=O)N(Cc4cccc(I)c4)c4ccccc43)[C@H]2C)cc1", "yes"),
    ("[N-]=[N+]=Nc1ccccc1C[C@]1(C(=O)NCc2ccccc2)N=C(c2ccc(OCCCO)cc2)O[C@H]1c1ccccc1N=[N+]=[N-]", "no"),
    ("O=C1O[C@@H](c2ccccc2)[C@@H](c2ccccc2)N2[C@@H](c3ccccc3OCCO)[C@]3(C(=O)Nc4ccccc43)[C@@H](C(=O)O)[C@H]12", "no"),
    ("O=C1C2C=CC(C(O)c3ccc(-c4ccccc4)s3)N(Nc3ccccc3)C2C(=O)N1c1ccccc1 (stereo unspecified)", "yes"),
    ("C[N+](C)(C)CCCC[C@@H]1NC(=O)[C@@H]2C[C@H](C(=O)NCCCCCN)[C@H](c3ccc(O)cc3)N2C1=O", "yes"),
    ("COc1ccc(CCNC(=O)[C@@]2(C)c3ccccc3C(=O)N(c3ccc(C)cn3)[C@H]2c2ccc(CO)cc2)cc1", "no"),
    ("NCCCCCNC(=O)[C@H]1C[C@H]2C(=O)N3CCC[C@H]3C(=O)N2[C@H]1c1ccc(O)cc1", "yes"),
    ("O=C1C2C=CC(C(O)C=Cc3ccc([N+](=O)[O-])cc3)N(Nc3ccccc3F)C2C(=O)N1c1ccccc1 (stereo unspecified)", "yes"),
    ("CCOC(=O)[C@H]1C/C=C/C[C@H](C(=O)OCC)C(=O)O[C@H]2[C@@H](OC)O[C@H](CO)[C@@H](OC(=O)c3ccc(Br)cc3)[C@@H]2OC1=O", "yes"),
    ("COc1ccc(C(O)C2C=CC3C(=O)N(C)C(=O)C3N2N(c2ccccc2)c2ccccc2)c2ccccc12 (stereo unspecified)", "yes"),
    ("C#CCNCc1ccccc1", "no"),
    ("CC#CC(=O)Oc1ccc(Br)cc1C=CC(=O)OCC", "no"),
    ("[N-]=[N+]=NCc1ccccc1[C@H]1OC(c2ccc(OCCCO)cc2)=N[C@@]1(Cc1ccccc1)C(=O)N1CCCCC1", "yes"),
    ("CCCCN1CC=CC23O[C@@H]4/C=C\\CCCOC(=O)C4[C@H]2C(=O)N(CCCCCO)[C@@H]3C1=O (stereo partly specified)", "no"),
    ("COC(=O)c1c(CC[C@@H](CO)NC(=O)N[C@H](Cc2ccccc2)Cn2cc(-c3ccccn3)nn2)oc(C(C)=O)c1C(=O)OC", "no"),
    ("COc1ccc(CCNC(=O)[C@@]2(c3ccc([N+](=O)[O-])cc3)CC(=O)N(CC34CC5CC(CC(C5)C3)C4)[C@@H]2c2ccc(CO)cc2I)cc1", "yes"),
    ("CN1C(=O)C2C=CC(C(O)c3ccc(F)cc3)N(N(c3ccccc3)c3ccccc3)C2C1=O (stereo unspecified)", "no"),
    ("C=C(C(=O)CC[C@H](OC(C)=O)c1ccccc1OCCO)C(C)C", "yes"),
    ("CCCNC(=O)[C@@H]1c2ccccc2C(=O)N(Cc2ccccc2OC)[C@H]1c1ccc(CO)cc1", "yes"),
    ("CC(=O)NCCCC[C@@H]1NC(=O)[C@H]2C[C@@H](C(=O)NCCCCCNC(=O)CS)[C@@H](c3ccc(O)cc3)N2C1=O", "yes"),
    ("O=C1NC(=O)C2C1C=CC(C(O)c1ccc(-c3ccccc3)s1)N2Nc1ccc(Cl)cc1Cl (stereo unspecified)", "yes"),
    ("C=CC[C@@]1(C(=O)N2CCCCC2)N=C(c2ccc(OCCCO)cc2)O[C@@H]1c1ccccc1N=[N+]=[N-]", "yes"),
    ("O=C(O)[C@H]1C[C@H]2C(=O)N3CCC[C@H]3C(=O)N2[C@H]1c1ccc(O)cc1", "no"),
    ("COC(=O)c1c2oc(c1C(=O)OC)C(=O)N[C@@H](C(C)C)Cn1cc(nn1)C1(CCCCC1)NC(=O)N[C@H](CO)CC2", "no"),
    ("COCCOC(=O)N1C(=O)[C@@]2(c3cc(C#CC4(O)CCCCCC4)ccc31)[C@H](c1ccccc1OCCO)N1[C@H](c3ccccc3)[C@H](c3ccccc3)OC(=O)[C@H]1[C@@H]2C(=O)N1CCc2cc(OC)c(OC)cc2C1", "no"),
    ("COc1ccc([Si](C)(C)[C@H]2[C@H](CC(=O)N3CCC[C@H]3CO)O[C@@]3(C(=O)N(Cc4cccc(N5CCOC5=O)c4)c4ccccc43)[C@@H]2C)cc1", "yes"),
    ("C#CCOc1ccc(C[C@@H](C(=O)OC)N(CC#C)[C@@H](/C=C/C2CC2)[C@H](O)Cc2ccccc2)cc1", "no"),
    ("O=C1C2C=CC(C(O)COCc3ccccc3)N(Nc3ccc([N+](=O)[O-])cc3)C2C(=O)N1c1ccccc1 (stereo unspecified)", "yes"),
    ("[N-]=[N+]=Nc1ccccc1C[C@]1(C(=O)NCC(O)CO)N=C(c2ccc(OCCCO)cc2)O[C@H]1c1ccccc1 (stereo partly specified)", "no"),
]

This collection of values is drawn from PubChem BioAssay.
